The values you see were collected from patent US9597310B2.

# targetOrTestSystem: human GPR40 receptor (Homo sapiens (Human))
# Sequence (O14842 whole entry): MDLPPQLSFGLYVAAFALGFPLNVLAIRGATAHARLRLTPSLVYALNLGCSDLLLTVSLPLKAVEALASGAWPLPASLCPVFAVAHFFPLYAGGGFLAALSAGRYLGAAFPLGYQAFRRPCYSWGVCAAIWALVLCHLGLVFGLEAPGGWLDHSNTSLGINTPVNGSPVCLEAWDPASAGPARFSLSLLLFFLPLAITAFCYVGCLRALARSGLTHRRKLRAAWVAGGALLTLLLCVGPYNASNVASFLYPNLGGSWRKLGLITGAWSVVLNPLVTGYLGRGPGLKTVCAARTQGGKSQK
# testSummary: IP1 accumulation measurements using the IPOne assay system
# experimentalParameters: 1321N1 cells stably expressing human GPR40 receptor, 1 h stimulation
observationType: pEC50
Answers are plain numbers, as −log10 of the molar value.

compoundStructureString	targetOrTestSystem	pEC50
O=C(O)C[C@@H]1COc2cc(O[C@@H]3CCc4c(Oc5ccc(C6CCOCC6)cc5)ccc(F)c43)ccc21	human GPR40 receptor (Homo sapiens (Human))	8.05

Please give pEC50, item by item, for the list that follows.
1. O=C(O)C[C@@H]1COc2cc(O[C@@H]3CCc4c(Oc5ccc(-c6nccs6)cc5)ccc(F)c43)ccc21
2. O=C(O)C[C@@H]1COc2cc(O[C@@H]3CCc4c(Oc5ccc6c(c5)CCO6)ccc(F)c43)ccc21

8.22
8.22

Go through the list and state pEC50 for each entry.
1. CC(C)(O)CCCc1ccc(Oc2ccc(F)c3c2CC[C@H]3Oc2ccc3c(c2)OC[C@H]3CC(=O)O)nc1
2. Cc1nc(-c2ccc(Oc3ccc(F)c4c3CC[C@H]4Oc3ccc4c(c3)OC[C@H]4CC(=O)O)cc2)cs1

[7.08, 7.89]

Hi! Can you tell me pEC50 for each of these molecules?
1. O=C(O)C[C@@H]1COc2cc(O[C@@H]3CCc4c(Oc5cccc(N6CCCC6=O)c5)ccc(F)c43)ccc21
2. CC(C)(O)CCOc1ccc(Oc2ccc(F)c3c2CC[C@H]3Oc2ccc3c(c2)OC[C@H]3CC(=O)O)nc1
3. CC(C)(O)CCCc1ccc(C#N)c(Oc2ccc(F)c3c2CC[C@H]3Oc2ccc3c(c2)OC[C@H]3CC(=O)O)c1
4. Cn1nccc1-c1ccc(Oc2ccc(F)c3c2CC[C@H]3Oc2ccc3c(c2)OC[C@H]3CC(=O)O)c(F)c1

[8.40, 7.64, 7.07, 8.22]

Each molecule below has a reported value. Please supply its pEC50.
1. CC(=O)NCc1cccc(Oc2ccc(F)c3c2CC[C@H]3Oc2ccc3c(c2)OC[C@H]3CC(=O)O)c1
2. O=C(O)C[C@@H]1COc2cc(O[C@@H]3CCc4c(Oc5ccc(CN6CCOCC6)cc5)ccc(F)c43)ccc21
3. O=C(O)C[C@@H]1COc2cc(O[C@@H]3CCc4c(Oc5ccc(CN6CCCC6)cc5)ccc(F)c43)ccc21
4. O=C(O)C[C@@H]1COc2cc(O[C@@H]3CCc4c(Oc5ccc(N6CCCC6=O)cc5)ccc(F)c43)ccc21
5. O=C(O)C[C@@H]1COc2cc(O[C@@H]3CCc4c(Oc5ccc(C(=O)N6CCOCC6)cc5)ccc(F)c43)ccc21

[7.26, 7.60, 6.67, 7.74, 7.57]
